pIC50: −log10 of the molar value.
Recorded below: pIC50, system Histone deacetylase 4 (Homo sapiens, UniProt P56524).

The value of pIC50 measured for the compound `COc1ccc(C(=O)N[C@@H](Cc2c[nH]c3ccccc23)C(=O)NCCCCCC(=O)Nc2cc(-c3cccs3)ccc2N)cc1` turned out to be < 4.00

Continuing:
// `COc1ccc(C(=O)N[C@@H](Cc2c[nH]c3ccccc23)C(=O)NCCCCCC(=O)Nc2ccc(F)cc2N)cc1` : pIC50 value = < 4.00
